Reported Population Fragmented Nuclei (%) by item:
Test system: HEK-293T
assayDetails: Multiplex assay against HEK293T
Format: toxicity, cell-based
experimentalParameters: human, 24 h, 1 µM, compound concentration 1 uM, replicate 1
Non-standard residues stand in square brackets, D forms with d. Residues, ends and D or L forms follow the SMILES beside them.
Value expressed in %; do not type the unit.

Example entries and their recorded answers appear below.
{"columns": ["compound", "Population Fragmented Nuclei (%)"],
 "data": [
  ["Nc1nc(CC(=O)Nc2ccc(CCNC[C@H](O)c3ccccc3)cc2)cs1", 10],
  ["Cc1cc(-c2ccc3c(c2)CC[C@H]3N2CC3(CCN(C(=O)Cc4cn5cc(C)sc5n4)CC3)C2)ncn1", 8],
  ["CC(C)C[C@@H]1NC(=O)[C@@H](C(C)C)NC(=O)[C@@H]2CCCN2C(=O)[C@@H](CC(=O)O)NC(=O)[C@@H](Cc2c[nH]c3ccccc23)NC1=O [BQ-123] (cyclo(L[dW][dD]P[dV]))", 10]
]}

Entry COc1cc(OC2CCN(C(C)=O)CC2)ccc1C(=O)N1CCC(N2C(=O)OCc3ccccc32)CC1 ; assay system HEK-293T; Population Fragmented Nuclei (%) recorded at 9

HEK-293T data for COc1cc(Nc2ncc3c(n2)-c2ccc(Cl)cc2C(c2c(F)cccc2OC)=NC3)ccc1C(=O)O ; its Population Fragmented Nuclei (%): 10

---

Tested on: Fibroblast
assayDetails: Multiplex assay against human fibroblast
Assay type: toxicity, cell-based
experimentalParameters: 12 h, 10 µM, compound concentration 10 uM, replicate 1
Non-standard residues stand in square brackets, D forms with d. Residues, ends and D or L forms follow the SMILES beside them.
// returns 0 unless Population Mitochondria Different-Phenotype (%) is strictly below 8%, in which case 1

{"columns": ["compound", "cat"],
 "data": [
  ["CC(C)(O)C(=O)N1CCN(c2ccc(C(F)(F)F)c(C3=C(c4c[nH]c5ccccc45)C(=O)NC3=O)c2)CC1", 0],
  ["Nc1nc(-c2ccco2)c2cnn(Cc3ccccc3F)c2n1", 1],
  ["CCCCC[C@H](O)/C=C/[C@H]1[C@H](O)CC(=O)[C@@H]1CCCCCCC(=O)O [ALPROSTADIL]", 1],
  ["Cc1sc2c(c1C)C(c1ccc(Cl)cc1)=N[C@H](CC(=O)OC(C)(C)C)c1nnc(C)n1-2", 0],
  ["Cc1cc(O)c(-c2ccc([C@@H](C)CN(C)C)cc2)c2c1[nH]c(=O)c1sccc12", 0],
  ["CCn1c(-c2nc3cc(C(=O)N4CCCC(N)C4)ccc3n2C)cc2ccccc21.Cl (configuration not stated)", 0],
  ["CC(C)C[C@@H]1NC(=O)[C@@H](C(C)C)NC(=O)[C@@H]2CCCN2C(=O)[C@@H](CC(=O)O)NC(=O)[C@@H](Cc2c[nH]c3ccccc23)NC1=O [BQ-123] (cyclo(L[dW][dD]P[dV]))", 0],
  ["Cl.Cl.OCCOCCN1CCN(C(c2ccccc2)c2ccc(Cl)cc2)CC1 (configuration not stated) [HYDROXYZINE HYDROCHLORIDE]", 0]
]}

is_below(Population Mitochondria Different-Phenotype (%), 8%) for CN1CCN(c2ccc(Nc3c4ccccc4nc4ccccc34)cc2)CC1.Cl.Cl.O ?
0

Record CC(C)C[C@H](CO)Nc1nc(S[C@@H](C)c2ccccc2)nc2nc(N)sc12 [AZD-8797] : is its Population Mitochondria Different-Phenotype (%) strictly below 8%?
1

Bench note: check whether Cc1cc(-c2ccc3c(c2)CC[C@H]3N2CC3(CCN(C(=O)Cc4cn5cc(C)sc5n4)CC3)C2)ncn1 [PF-5190457] shows Population Mitochondria Different-Phenotype (%) below 8%
1

A record lists CC(F)(F)CN1CCOc2c(nn(-c3ccccc3Cl)c2-c2ccc(Cl)cc2)C1=O . Is its Population Mitochondria Different-Phenotype (%) below 8%?
0

Determine whether this compound shows Population Mitochondria Different-Phenotype (%) lower than 8% (ties excluded): COCCn1c(C)c(C)s/c1=N\C(=O)C1C(C)(C)C1(C)C
0
